For each record, write down the corresponding MIC.
tested on: Bacillus subtilis; assay: Antibacterial activity against Bacillus subtilis NCIM 2079 after 12 hrs; assay type: functional, organism-based; conditions: NCIM 2079, 12 h
Give bare numbers, in µg/mL.

Use the examples below as a reference point.
O=C(/C=C\c1ccccc1)N1N=C(c2ccncc2)OC1c1c[nH]c2ccccc12 (stereo not given)
45.4
O=C(/C=C\c1cccc([N+](=O)[O-])c1)N1N=C(c2ccncc2)OC1c1c[nH]c2ccccc12 (stereo not given)
86

q: Find the measured MIC: item NC[C@H]1O[C@H](O[C@H]2[C@H](O)[C@@H](O[C@H]3O[C@H](CO)[C@@H](O)[C@H](N)[C@H]3O)[C@H](N)C[C@@H]2N)[C@H](O)[C@@H](O)[C@@H]1O , target or system Bacillus subtilis.
a: 1.35

====

For each record, write down the corresponding selectivity ratio.
test: Selectivity index, ratio of GI50 for human PANC1 cells to MIC for active state Mycobacterium bovis BCG ATCC 35734; type: toxicity, cell-based, PANC-1; conditions: read-out: Selectivity Index

Use the examples below as a reference point.
O=C(/C=C\c1ccccc1O)N1N=C(c2ccncc2)OC1c1c[nH]c2ccccc12 (stereo unspecified)
> 31.9
CO[C@H]1/C=C/O[C@@]2(C)Oc3c(C)c(O)c4c(O)c(c(/C=N/N5CCN(C)CC5)c(O)c4c3C2=O)NC(=O)/C(C)=C\C=C\[C@H](C)[C@H](O)[C@@H](C)[C@@H](O)[C@@H](C)[C@H](OC(C)=O)[C@@H]1C
> 2860
NNC(=O)c1ccncc1
> 3030
O=C(/C=C\c1ccc([N+](=O)[O-])cc1)N1N=C(c2ccncc2)OC1c1c[nH]c2ccccc12 (stereo unspecified)
> 12
O=C(/C=C\c1ccc(Cl)cc1Cl)N1N=C(c2ccncc2)OC1c1c[nH]c2ccccc12 (stereo unspecified)
> 5.8

// next item, selectivity ratio requested
q: Please give the measured selectivity ratio for this compound: O=C(/C=C\c1ccccc1[N+](=O)[O-])N1N=C(c2ccncc2)OC1c1c[nH]c2ccccc12 (stereo unspecified)
a: > 29.1

====

For each record, write down the corresponding selectivity ratio.
assay: Selectivity index, ratio of GI50 for human A549 cells to MIC for active state Mycobacterium bovis BCG ATCC 35734; type: toxicity, cell-based; conditions: read-out: Selectivity Index

CO[C@H]1/C=C/O[C@@]2(C)Oc3c(C)c(O)c4c(O)c(c(/C=N/N5CCN(C)CC5)c(O)c4c3C2=O)NC(=O)/C(C)=C\C=C\[C@H](C)[C@H](O)[C@@H](C)[C@@H](O)[C@@H](C)[C@H](OC(C)=O)[C@@H]1C
> 2860
O=C(/C=C\c1ccc([N+](=O)[O-])cc1)N1N=C(c2ccncc2)OC1c1c[nH]c2ccccc12 (stereo unspecified)
> 12
NNC(=O)c1ccncc1
> 3030
O=C(/C=C\c1ccccc1[N+](=O)[O-])N1N=C(c2ccncc2)OC1c1c[nH]c2ccccc12 (stereo unspecified)
> 29.1
O=C(/C=C\c1ccc(Cl)cc1Cl)N1N=C(c2ccncc2)OC1c1c[nH]c2ccccc12 (stereo unspecified)
> 5.8

// next item, selectivity ratio requested
q: Please give the measured selectivity ratio for this molecule: O=C(/C=C\c1ccccc1O)N1N=C(c2ccncc2)OC1c1c[nH]c2ccccc12 (stereo unspecified)
a: > 31.9

====

system: Bacillus subtilis; experiment: Antibacterial activity against Bacillus subtilis NCIM 2079 after 12 hrs; type: functional, organism-based; settings: NCIM 2079, 12 h
For each record, write down the corresponding MIC.
Numbers only, in µg/mL.

O=C(/C=C\c1cccc(Cl)c1Cl)N1N=C(c2ccncc2)OC1c1c[nH]c2ccccc12 (stereo not drawn)
168

For every record below, what is its MIC?
1. O=C(/C=C\c1cccc(Br)c1)N1N=C(c2ccncc2)OC1c1c[nH]c2ccccc12 (stereo not drawn)
2. Cc1ccc(/C=C\C(=O)N2N=C(c3ccncc3)OC2c2c[nH]c3ccccc23)cc1 (stereo not drawn)
3. CC1(C)S[C@@H]2[C@H](NC(=O)[C@H](N)c3ccccc3)C(=O)N2[C@H]1C(=O)O
4. O=C(/C=C\c1cccc(O)c1)N1N=C(c2ccncc2)OC1c1c[nH]c2ccccc12 (stereo not drawn)

a:
1. 22.6
2. 10.3
3. 10.3
4. 121

====

For each record, write down the corresponding log10 of IC50.
system: Staphylococcus aureus; assay: Antibacterial activity against Staphylococcus aureus NCIM 2010 after 12 hrs; assay type: functional, organism-based; conditions: NCIM 2010, 12 h
log10 IC50, µg/mL

Use the examples below as a reference point.
O=C(/C=C\c1ccc(Br)cc1)N1N=C(c2ccncc2)OC1c1c[nH]c2ccccc12 (centres undefined)
1.11
CC1(C)S[C@@H]2[C@H](NC(=O)[C@H](N)c3ccccc3)C(=O)N2[C@H]1C(=O)O [AMPICILLIN]
-0.38
O=C(/C=C\c1ccccc1O)N1N=C(c2ccncc2)OC1c1c[nH]c2ccccc12 (centres undefined)
1.37
O=C(/C=C\c1ccc(F)cc1)N1N=C(c2ccncc2)OC1c1c[nH]c2ccccc12 (centres undefined)
1.11
O=C(/C=C\c1cccc(O)c1)N1N=C(c2ccncc2)OC1c1c[nH]c2ccccc12 (centres undefined)
1.26

// next item, log10 of IC50 requested
q: Please give the measured log10 of IC50 for this compound: O=C(/C=C\c1ccccc1F)N1N=C(c2ccncc2)OC1c1c[nH]c2ccccc12 (centres undefined)
a: 1.46

====

assay: Selectivity index, ratio of GI50 for human HeLa cells to MIC for dormant state Mycobacterium bovis BCG ATCC 35734; assay type: toxicity, cell-based; details: read-out: Selectivity Index
For each record, write down the corresponding selectivity ratio.

Use the examples below as a reference point.
O=C(/C=C\c1ccccc1[N+](=O)[O-])N1N=C(c2ccncc2)OC1c1c[nH]c2ccccc12 (stereo unspecified)
> 35.3
CO[C@H]1/C=C/O[C@@]2(C)Oc3c(C)c(O)c4c(O)c(c(/C=N/N5CCN(C)CC5)c(O)c4c3C2=O)NC(=O)/C(C)=C\C=C\[C@H](C)[C@H](O)[C@@H](C)[C@@H](O)[C@@H](C)[C@H](OC(C)=O)[C@@H]1C [RIFAMPIN]
> 2700
O=C(/C=C\c1ccc([N+](=O)[O-])cc1)N1N=C(c2ccncc2)OC1c1c[nH]c2ccccc12 (stereo unspecified)
> 12.7
O=C(/C=C\c1ccc(Cl)cc1Cl)N1N=C(c2ccncc2)OC1c1c[nH]c2ccccc12 (stereo unspecified)
5.9
NNC(=O)c1ccncc1 [ISONIAZID]
> 2560

// next item, selectivity ratio requested
q: Please give the measured selectivity ratio for this compound: O=C(/C=C\c1ccccc1O)N1N=C(c2ccncc2)OC1c1c[nH]c2ccccc12 (stereo unspecified)
a: 22.5

====

For each record, write down the corresponding selectivity ratio.
test: Selectivity index, ratio of GI50 for human HeLa cells to MIC for active state Mycobacterium bovis BCG ATCC 35734; assay type: toxicity, cell-based; settings: read-out: Selectivity Index

Use the examples below as a reference point.
CO[C@H]1/C=C/O[C@@]2(C)Oc3c(C)c(O)c4c(O)c(c(/C=N/N5CCN(C)CC5)c(O)c4c3C2=O)NC(=O)/C(C)=C\C=C\[C@H](C)[C@H](O)[C@@H](C)[C@@H](O)[C@@H](C)[C@H](OC(C)=O)[C@@H]1C [RIFAMPIN]
> 2860
O=C(/C=C\c1ccccc1O)N1N=C(c2ccncc2)OC1c1c[nH]c2ccccc12 (stereo unspecified)
28.5
NNC(=O)c1ccncc1 [ISONIAZID]
> 3030
O=C(/C=C\c1ccccc1[N+](=O)[O-])N1N=C(c2ccncc2)OC1c1c[nH]c2ccccc12 (stereo unspecified)
> 29.1

For every record below, what is its selectivity ratio?
1. O=C(/C=C\c1ccc(Cl)cc1Cl)N1N=C(c2ccncc2)OC1c1c[nH]c2ccccc12 (stereo unspecified)
2. O=C(/C=C\c1ccc([N+](=O)[O-])cc1)N1N=C(c2ccncc2)OC1c1c[nH]c2ccccc12 (stereo unspecified)

a:
1. 5.68
2. > 12

====

experiment: Cytotoxicity against human PANC1 cells after 48 hrs by MTT assay; format: cell-based, PANC-1; conditions: panc-1, 48 h
PROPERTY_LABEL: GI90

O=C(/C=C\c1ccc(Cl)cc1)N1N=C(c2ccncc2)OC1c1c[nH]c2ccccc12 (stereo not drawn)
> 30 µg/mL
O=C(/C=C\c1cccc(F)c1)N1N=C(c2ccncc2)OC1c1c[nH]c2ccccc12 (stereo not drawn)
> 30 µg/mL
O=C(/C=C\c1ccccc1O)N1N=C(c2ccncc2)OC1c1c[nH]c2ccccc12 (stereo not drawn)
> 30 µg/mL
O=C(/C=C\c1cccc(Cl)c1Cl)N1N=C(c2ccncc2)OC1c1c[nH]c2ccccc12 (stereo not drawn)
> 30 µg/mL
O=C(/C=C\c1ccccc1)N1N=C(c2ccncc2)OC1c1c[nH]c2ccccc12 (stereo not drawn)
> 30 µg/mL
O=C(/C=C\c1cccc([N+](=O)[O-])c1)N1N=C(c2ccncc2)OC1c1c[nH]c2ccccc12 (stereo not drawn)
> 30 µg/mL
O=C(/C=C\c1ccccc1[N+](=O)[O-])N1N=C(c2ccncc2)OC1c1c[nH]c2ccccc12 (stereo not drawn)
> 30 µg/mL

// next item, GI90 requested
q: Please give the measured GI90 for this molecule: O=C(/C=C\c1ccc(O)cc1)N1N=C(c2ccncc2)OC1c1c[nH]c2ccccc12 (stereo not drawn)
a: > 30 µg/mL
